Below, each entry is listed with its recorded koff.
molecular target: T1, human immunoglobulin E (hIgE) (human, UniProt P01854-1 1-428); experiment: SPR (Biacore), pH 7.4
T1 construct: also called human IgE; Native IgE (Abcam)
T1 sequence (P01854 whole entry): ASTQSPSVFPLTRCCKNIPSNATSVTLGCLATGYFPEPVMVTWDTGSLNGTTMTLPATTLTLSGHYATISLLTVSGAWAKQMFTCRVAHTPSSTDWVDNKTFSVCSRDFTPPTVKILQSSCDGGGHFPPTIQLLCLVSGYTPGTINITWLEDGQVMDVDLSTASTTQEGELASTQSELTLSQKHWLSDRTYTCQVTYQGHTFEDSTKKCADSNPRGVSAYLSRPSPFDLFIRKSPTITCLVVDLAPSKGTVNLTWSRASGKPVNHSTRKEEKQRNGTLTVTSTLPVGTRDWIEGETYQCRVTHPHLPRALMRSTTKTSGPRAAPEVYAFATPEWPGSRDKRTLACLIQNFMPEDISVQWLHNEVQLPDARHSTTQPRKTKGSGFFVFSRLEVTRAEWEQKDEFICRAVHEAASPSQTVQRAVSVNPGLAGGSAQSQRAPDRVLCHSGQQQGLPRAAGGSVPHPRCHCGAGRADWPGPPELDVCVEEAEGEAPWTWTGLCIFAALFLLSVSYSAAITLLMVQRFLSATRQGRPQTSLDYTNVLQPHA
// return numeric value only (unit: s⁻¹, not printed)

A selection of reference data follows.
| binder | koff, s⁻¹ |
| --- | --- |
| OmaVH15G55H - VL3 (antibody, V domains shown) VH: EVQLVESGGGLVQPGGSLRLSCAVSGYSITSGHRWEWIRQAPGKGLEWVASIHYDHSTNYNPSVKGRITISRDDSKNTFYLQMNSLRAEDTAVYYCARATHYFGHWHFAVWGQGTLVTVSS VL: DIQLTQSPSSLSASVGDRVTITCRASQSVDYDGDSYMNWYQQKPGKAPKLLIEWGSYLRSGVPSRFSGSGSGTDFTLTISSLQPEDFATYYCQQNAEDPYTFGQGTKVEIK | 0.000105 |
| OmaVH15G55H - VL3D28H (antibody, V domains shown, also called OmaVH15G55H VL3D25H) VH: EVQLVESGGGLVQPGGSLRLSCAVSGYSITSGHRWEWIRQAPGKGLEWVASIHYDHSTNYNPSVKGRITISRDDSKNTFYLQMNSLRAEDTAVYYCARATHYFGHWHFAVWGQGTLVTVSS VL: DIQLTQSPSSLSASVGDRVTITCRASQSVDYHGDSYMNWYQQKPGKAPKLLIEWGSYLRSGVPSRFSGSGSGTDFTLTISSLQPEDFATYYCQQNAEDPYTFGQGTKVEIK | 0.000206 |

koff measured on Oma VH15W100b - VL3D28HS31H (antibody, V domains shown) VH: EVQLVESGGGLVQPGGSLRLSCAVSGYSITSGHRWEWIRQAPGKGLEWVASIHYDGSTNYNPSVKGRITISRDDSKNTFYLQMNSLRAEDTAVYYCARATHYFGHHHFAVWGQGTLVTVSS VL: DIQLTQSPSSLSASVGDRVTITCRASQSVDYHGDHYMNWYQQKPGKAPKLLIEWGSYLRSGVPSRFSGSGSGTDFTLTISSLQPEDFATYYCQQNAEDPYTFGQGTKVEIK = 0.00251
